Values compiled from patent US12258367B2.

- Method notes: In vivo DMPK study in rats
- Test conditions: rat, plasma, iv; male SD rats, 1 mg/kg intravenously; read-out: Cl (clearance rate)
clearance reference

Compound	clearance (mL/min/kg)
CS[C@H]1O[C@@H](c2ccc(C)c(Cc3ccc(CCCC(=O)NC(C)(C)C(=O)NCCN(C)C)cc3)c2)[C@H](O)[C@@H](O)[C@@H]1O [LX2761, reference compound]	37.6
CCc1ccc([C@@H]2O[C@H](SC)[C@@H](O)[C@H](O)[C@H]2O)cc1Cc1ccc(OC2CCN(C(=O)C[C@H](N)Cc3cc(F)c(F)cc3F)CC2)cc1 [WXD003]	32.5

----------
- Method notes: In vivo DMPK study in rats
- Test conditions: rat, po; male SD rats, 10 mg/kg orally, plasma
Measured quantity: Cmax

Smi	Recorded result
CCc1ccc([C@@H]2O[C@H](SC)[C@@H](O)[C@H](O)[C@H]2O)cc1Cc1ccc(OC2CCN(C(=O)C[C@H](N)Cc3cc(F)c(F)cc3F)CC2)cc1	16.5 nM
